Quick list: inhibition per entry.
# test_system: Testis-specific serine/threonine-protein kinase 1 (Homo sapiens);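 note: reported value is the mean inhibition, from the GSK PKIS kinase screening panel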
# applied_conditions: at 1 µM
Field: value (include unit after the number)

COc1cc(Nc2ncc3c(C)nc(-c4cccc(Oc5ccccc5)c4)n3n2)cc(OC)c1OC ... 5.53%
COc1cc(Nc2ncc3c(C)nc(-c4cccc(C(F)(F)F)c4)n3n2)cc(OC)c1OC ... 9.14%
COc1cc2ncn(-c3cc(OCc4cccs4)c(C(N)=O)s3)c2cc1OC ... 8.81%
c1ccc(-c2n[nH]cc2-c2ccnc(-c3ccc(OCCN4CCOCC4)cc3)c2)nc1 ... -3.08%
COc1cccc(-n2cnc3c(N/N=C/c4ccncc4)ncnc32)c1 ... 5.32%

Any idea what its inhibition is? The compound is `COc1cc(Nc2ncc(-c3ccccc3)o2)cc(OC)c1OC`
-0.04%

Another compound to look at: `Cc1nnc(-c2ccc(C)c(-c3ccc(C(=O)NCc4ccc(Cl)cc4)cc3)c2)o1`
4.33%

Another compound to look at: `CN(C)CCCNc1nccc(-c2c(-c3ccc(F)cc3)nn3cc(C(F)(F)F)ccc23)n1`
-1.19%

Another compound to look at: `O=C(Nc1n[nH]c2nc(-c3ccc(O)cc3)c(Br)cc12)C1CC1`
5.96%

Another compound to look at: `CCC(=O)Nc1ccc(C)c(-c2ccc(C(=O)NCC3CC3)cc2)c1`
3.59%
